# Measured Target: RUNX1 H179K (Homo sapiens, UniProt Q01196 1-181, H179K)
# Sequence (Q01196 1-181 H179K): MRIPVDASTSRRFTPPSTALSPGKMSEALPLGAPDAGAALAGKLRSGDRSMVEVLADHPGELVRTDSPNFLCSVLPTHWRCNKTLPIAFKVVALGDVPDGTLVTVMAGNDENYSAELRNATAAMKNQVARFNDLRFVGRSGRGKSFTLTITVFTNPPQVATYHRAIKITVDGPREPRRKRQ
# Experiment: ITC; without CBFβ; ITC: 20 uM RUNX1 in cell, 100 uM DNA in syringe, 10 mM HEPES-NaOH pH 7.5, 180 mM NaCl, 0.005% Tween 20; temperature stated as 277 K (Methods) but 25 °C (Results)
# Applied Conditions: protein: recombinant; tags: N-terminal His6; (21 bp)
Measured Endpoint: pKd
Interpret pKd as the negative base-10 log of the concentration measured in mol/L.

Quick one: pKd for CSF-1R promoter 21 bp DNA (dsDNA) DNA 1: CAAACTCTGTGGTTGCCTTGC DNA 2: GCAAGGCAACCACAGAGTTTG ?
6.46
